Data origin: ChEMBL document CHEMBL1138421

Reported GI50 is given for each of the following molecules.
- System: A2780
- test: Antiproliferative activity against human A2780 cells after 48 hrs by sulforhodamine B assay
- Format: functional
- measurement.setup: A2780, 48 h

Example entries and their recorded answers appear below.
molecule | measurement
CC(C)(C)[Si](C)(C)O[C@H]1CCCO[C@@H]1CO (relative stereo) | > 100 µM
O=C(COC[C@H]1OCCC[C@@H]1O)OCc1ccccc1 (relative stereo) | > 100 µM
CC(C)(C)[Si](C)(C)O[C@@H]1CCCO[C@@H]1COCC(=O)OCc1ccccc1 | 28 µM
CC(C)(C)[Si](C)(C)O[C@H]1CCCO[C@@H]1COCC(=O)OCc1ccccc1 (relative stereo) | 17 µM
c1ccc([C@H]2OC[C@H]3OCCC[C@H]3O2)cc1 | > 100 µM

Look at this molecule and give its reported GI50. "CC(C)(C)[Si](C)(C)O[C@@H]1CCCO[C@@H]1COCCCO"
> 100 µM

Item "CC(C)(C)[Si](C)(C)O[C@@H]1CCCO[C@@H]1CO/C=C/C(=O)OCc1ccccc1" has what recorded GI50?
26 µM

Entry under review: CC(C)(C)[Si](C)(C)O[C@@H]1CCCO[C@@H]1CO (relative stereo) . Reported GI50?
> 100 µM

GI50 lookup needed for "c1cc([C@H]2OC[C@H]3OCCC[C@H]3O2)nc([C@H]2OC[C@H]3OCCC[C@H]3O2)c1" , thanks.
> 100 µM

Given "CC(C)(C)[Si](C)(C)O[C@@H]1CCCO[C@@H]1CO/C=C/CO" , state its recorded GI50.
> 100 µM

Item "c1cc([C@H]2OC[C@H]3OCCC[C@H]3O2)ccc1[C@H]1OC[C@H]2OCCC[C@H]2O1" has what recorded GI50?
> 100 µM

// returns reported GI50 for input C=CCOC[C@H]1OCCC[C@H]1O[Si](C)(C)C(C)(C)C (relative stereo)
15 µM

# query: GI50 of entry CC(C)(C)[Si](C)(C)O[C@@H]1CCCO[C@@H]1COCC(=O)O (relative stereo)
> 100 µM

====

- System: SW1573
- test: Antiproliferative activity against human SW1573 cells after 48 hrs by sulforhodamine B assay
- Assay type: functional
- measurement.setup: SW1573, 48 h
Listing: GI50 of selected compounds

Solved cases below.
compound | GI50
O=C(COC[C@H]1OCCC[C@H]1O)OCc1ccccc1 | > 100 µM
CC(C)(C)[Si](C)(C)O[C@@H]1CCCO[C@@H]1COCC(=O)OCc1ccccc1 | 29 µM
CC(C)(C)[Si](C)(C)O[C@@H]1CCCO[C@@H]1CO (relative stereo) | > 100 µM
CC(C)(C)[Si](C)(C)O[C@@H]1CCCO[C@@H]1COCCCO | > 100 µM
CC(C)(C)[Si](C)(C)O[C@@H]1CCCO[C@@H]1CO/C=C/CO | > 100 µM
CC(C)(C)[Si](C)(C)O[C@@H]1CCCO[C@@H]1COCC(=O)O (relative stereo) | > 100 µM

Report GI50 for CC(C)(C)[Si](C)(C)O[C@H]1CCCO[C@@H]1COCC(=O)OCc1ccccc1 (relative stereo) tested on SW1573.
17 µM

For the record "O=C1COC[C@H]2OCCC[C@H]2O1" , what value of GI50 is listed for SW1573?
> 100 µM

Given the entry CC(C)(C)[Si](C)(C)O[C@H]1CCCO[C@@H]1CO (relative stereo) , what GI50 was observed with SW1573?
> 100 µM

# query: GI50 | item C=CCOC[C@H]1OCCC[C@H]1O[Si](C)(C)C(C)(C)C (relative stereo) | system: SW1573
18 µM

====

- System: SW1573
- test: Antiproliferative activity against human SW1573 cells after 48 hrs by sulforhodamine B assay
- Type: functional
- measurement.setup: SW1573, 48 h
measure: GI50 (µM)

(a) COC(=O)/C=C/OC[C@H]1OCCC[C@H]1O[Si](C)(C)C(C)(C)C (relative stereo)
(b) CC(C)(C)[Si](C)(C)O[C@@H]1CCCO[C@@H]1CO/C=C/C(=O)OCc1ccccc1
Which has the smaller recorded GI50, a or b ? Return value: the label identifying the chosen record.
b
(b: 26 µM, a: 50 µM)

====

- System: SW1573
- test: Antiproliferative activity against human SW1573 cells after 48 hrs by sulforhodamine B assay
- Type: functional
- measurement.setup: SW1573, 48 h
measure: GI50

compound | GI50
O=C(COC[C@H]1OCCC[C@@H]1O)OCc1ccccc1 (relative stereo) | > 100 µM
c1ccc([C@H]2OC[C@H]3OCCC[C@H]3O2)cc1 | > 100 µM
COC(=O)CCOC[C@H]1OCCC[C@H]1O[Si](C)(C)C(C)(C)C | > 100 µM
c1cc([C@H]2OC[C@H]3OCCC[C@H]3O2)nc([C@H]2OC[C@H]3OCCC[C@H]3O2)c1 | > 100 µM

From here, focus on the item given below.
Which GI50 value is on record for O=C1COC[C@H]2OCCC[C@@H]2O1 (relative stereo) ?
> 100 µM

====

- Tested on: A2780
- test: Antiproliferative activity against human A2780 cells after 48 hrs by sulforhodamine B assay
- Format: functional
- measurement.setup: A2780, 48 h
measure: GI50

Some compounds with recorded GI50:
compound | target.under.test | GI50
COC(=O)/C=C/OC[C@H]1OCCC[C@H]1O[Si](C)(C)C(C)(C)C (relative stereo) | A2780 | 30 µM
O=C1COC[C@H]2OCCC[C@H]2O1 | A2780 | > 100 µM
O=C(COC[C@H]1OCCC[C@H]1O)OCc1ccccc1 | A2780 | > 100 µM
O=C1COC[C@H]2OCCC[C@@H]2O1 (relative stereo) | A2780 | > 100 µM

Please examine the following record next.
Look at this compound and give its reported GI50. "COC(=O)CCOC[C@H]1OCCC[C@H]1O[Si](C)(C)C(C)(C)C"
> 100 µM
